system: fifth-instar Heliothis virescens larvae; assay: Relative activity of UV-irradiated compounds in inhibiting pupal development (pupation); type: in vivo; settings: 30 h UV; relative to non-irradiated
Each record here notes measured Relative activity, inhibiting pupal development.
Express your answer in %, writing the number without its unit.

Some solved cases for reference:
[
  {
    "molecule": "C/C=C(\\C)C(=O)O[C@H]1C[C@@H](OC(C)=O)[C@@]2(C(=O)OC)CO[C@H]3[C@@H](O)[C@@](C)([C@]45O[C@@]4(C)[C@H]4C[C@@H]5O[C@@H]5OC=C[C@@]54O)[C@H]4[C@]1(CO[C@]4(O)C(=O)OC)[C@@H]32 [Compound 1, azadirachtin]",
    "measurement": 98.9
  },
  {
    "molecule": "C/C=C(\\C)C(=O)OC1CC(O)C2(C(=O)OC)COC3C2C12COC(O)(C(=O)OC)C2C(C)(C12OC1(C)C1CC2OC2OC=CC21O)C3O (stereo not shown) [Compound 2, 3-deacetylazadirachtin]",
    "measurement": 135.0
  }
]

input: What value of measured Relative activity, inhibiting pupal development is listed for C/C=C(\C)C(=O)OC1CC(OC(C)=O)C2(C(=O)OC)COC3C2C12COC(O)(C(=O)OC)C2C(C)(C12OC1(C)C1CC2OC2OCCC21O)C3O (stereo not shown) [Compound 3, 22,23-dihydroazadirachtin] ?
output: 104.6

input: If you can, please state the reported Relative activity, inhibiting pupal development value of CCC(C)C(=O)OC1CC(OC(C)=O)C2(C(=O)OC)COC3C2C12COC(O)(C(=O)OC)C2C(C)(C12OC1(C)C1CC2OC2OCCC21O)C3O (stereo not shown) [Compound 8, 2',3',22,23-tetrahydroazadirachtin] .
output: 103.7
